B1: glmS ribozyme (parent)
chain: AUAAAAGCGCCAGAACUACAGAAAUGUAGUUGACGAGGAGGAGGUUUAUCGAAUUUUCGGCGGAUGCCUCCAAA

Variants of: B1
Assay: self-cleavage kobs at 40 uM GlcN6P; higher = faster cleavage; RNA array
Conditions: with glucosamine-6-phosphate
Fewer inactive variants are shown than the library holds.
self-cleavage kobs at 40 uM GlcN6P values by entry

Use the examples below as a reference point.
MUTATION_NAME	self-cleavage kobs at 40 uM GlcN6P
C16G G40U C58G	< 1e-05 s⁻¹
A52U A64G U69A	< 1e-05 s⁻¹
G37A C50G C58A C67A C71U	4.39e-05 s⁻¹
U31A A53U	0.000232 s⁻¹

Sample A42G C68U ; self-cleavage kobs at 40 uM GlcN6P observed: 0.000563 s⁻¹

Sample U46G C67G ; self-cleavage kobs at 40 uM GlcN6P observed: 2.99e-05 s⁻¹

Sample A14C G44U ; self-cleavage kobs at 40 uM GlcN6P observed: < 1e-05 s⁻¹

Sample A39C G62U ; self-cleavage kobs at 40 uM GlcN6P observed: < 1e-05 s⁻¹

Sample G13U U31C A33C A48C A52C U56G ; self-cleavage kobs at 40 uM GlcN6P observed: < 1e-05 s⁻¹
